Where these numbers come from: the supplement of paper PMC12632987

assay_target: MAP1LC3A, Q9H492
test: median log2 fold change of GCK-ALFA target abundance (FLAG IP / Myc IP barcode read proportion) (log2 ratio); each designed protein is fused to an ALFA-tag nanobody in HEK293 cells to bring the named protein to FLAG-tagged glucokinase (GCK); Myc marks an untargeted standard; higher = target protein stabilised (more abundant)
protocol_conditions: target protein: 3xFLAG-MCP-GCK-ALFA reporter; HEK293 landing pad (RPLP)
In all, about 2,300 sequences were measured (“median log2 fold change of GCK-ALFA target abundance (FLAG IP / Myc IP barcode read proportion)”: median about 0.095, lowest 2% from about -0.47 on). What follows is part of a selection rich in the lowest values, with near analogues and random picks from the rest.
Answer each item with its documented median log2 fold change.
// return a plain number; no unit text

Exercise: Quick one: median log2 fold change for LC3A_147_465 (protein) KKYEVVLDVLVKDLTPELLKDFEELAEEIKEKFPDAEVELKVETDPEDPSLTLVTLTVTVDTEEDAEKILDFLDEKEEELEKKYSDQILASMISKQEVEP ?
Key: -0.192

Exercise: Please report the recorded median log2 fold change for LC3A_17_542 (protein) MEEIKKELEELLKKLEKLVEKLAEYDPEKAKKLKKKLEEAKKLIKAGKLKEAAELLAEAAREAAEAWEELEPEYGTEASVYAMEASGLELEAIGILLKLD .
Key: -0.71

Exercise: So what does the record say about median log2 fold change for LC3A_28_1225 (protein) AAVDAEIAAARAAMAAAAAAGEEATITVKITGKTTLADVKRLMEALRAIVAEHAHLPRISIIIDLSGKVTQEQIDAAAEGGERIEKEFPNVTVILALDEN ?
Key: 0.191

Exercise: Value lookup for median log2 fold change; key = LC3A_28_950 (protein) MSIEENIEKALKEAKEAKEKNEPVVITLVLEDDPSEEAVEALIEAMEEIAELLKDIKGTTIIVDVSSKVKQEHIDAIADKGEEIEKKYPNINVIIALDED
Key: 0.204
